For each entry below, report its EC50 value.
# SYSTEM NAME: DYRK1A kinase (Homo sapiens, UniProt Q13627)
# TEST: DYRK1A kinase activity (Ser/Thr 18 peptide Z-lyte FRET assay);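 further: kinase activity read as coumarin/fluorescein emission ratio after development step, with unphosphorylated and phosphorylated peptide forms setting 0% and 100% controls, values from dose-response curves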
# MEASUREMENT CONDITIONS: recombinant DYRK1A, 30 μM ATP, one hour at room temperature
Answers are plain numbers, in nM.

# count of solved cases: 3
Cn1cc(-c2cc3cc(NC(=O)C4CCN(Cc5ncco5)CC4)ncc3cn2)cn1 2
CN1CCN(Cc2cccc(C(=O)Nc3ncc4ccc(-c5cnn(C)c5)cc4n3)c2)CC1 19
CN1CCC(C(=O)Nc2ncc3ccc(-c4cnsc4)cc3n2)CC1 27

# input State, in one line, measured EC50 of `Cn1cc(-c2ccc3cnc(NC(=O)CN4CCOCC4)nc3c2)cn1`
# output 126

---

For each entry below, report its pEC50 value.
# SYSTEM NAME: DYRK1A kinase (Homo sapiens)
# TEST: DYRK1A kinase activity (Ser/Thr 18 peptide Z-lyte FRET assay)
# MEASUREMENT CONDITIONS: recombinant DYRK1A, 30 μM ATP, one hour at room temperature
Numbers only, as −log10 of the molar value.

CN1CCN(c2cc(C(=O)Nc3ncc4ccc(-c5ccc(N)nc5)cc4n3)ccn2)CC1 7.57

Each compound below has a reported value. Please supply its pEC50.
1. CC(C)Nc1cncc(-c2ccc3cnc(NC(=O)c4cn(C5CCN(CCF)CC5)nn4)cc3n2)n1
2. Cn1cncc1-c1cc2cc(NC(=O)c3cccc(CN4CCCC4)c3)ncc2cn1
3. CN1CCC(n2cc(C(=O)Nc3cc4cc(-c5cnn(C)c5)cnc4cn3)cn2)CC1
4. Cc1ncc(-c2ccc3cnc(NC(=O)C4CCN(C(=O)CN5CCCC5)CC4)cc3n2)s1
5. CN1CCN(Cc2cccc(C(=O)Nc3cc4cc(-c5cnn(C)c5)cnc4cn3)c2)CC1
6. CNC(=O)c1ccc(C(=O)Nc2cc3cc(-c4cn(C)nn4)ncc3cn2)cn1
7. O=C(Nc1cc2nc(-c3cnco3)ccc2cn1)c1ccncc1

# output
6.41
8.15
7.62
8.15
7.41
6.34
7.54

---

# System: α-smooth muscle actin (aSMA) positive LL29 cells
# TEST: Inhibition of the fibrotic process: αSMA staining in TGF-β1 treated LL29 fibroblasts from IPF patients
# MEASUREMENT CONDITIONS: Homo sapiens, Fibroblast, read-out: percentage in parentheses after EC50 >10
Values of inhibition at 10 µM greater than or equal to 40% map to yes; values below map to no.

MOLECULE	CATEGORY
Cn1cc(-c2cnc3cnc(NC(=O)C4CCN(S(C)(=O)=O)CC4)cc3c2)cn1	yes
Cn1ncc(-c2cnc3cnc(NC(=O)c4ccnc(N5CCOCC5)c4)cc3c2)c1CN1CCOCC1	no
CC(F)(F)CN1CCC(C(=O)Nc2cc3cc(-c4cnco4)cnc3cn2)CC1	no
CC(C(=O)Nc1cc2nc(-c3cnn(C)c3)ccc2cn1)N1CCCCC1 (centres unmarked)	no
Cn1cc(-c2ccc3cnc(NC(=O)C4CCN(CC5(C(F)(F)F)CC5)CC4)cc3n2)nn1	no

# input Does inhibition at 10 µM meet or surpass 40% for `Cn1cnnc1-c1ccc2cnc(NC(=O)C3CCN(CCC(F)(F)F)CC3)nc2c1` ?
# output yes

# input Does inhibition at 10 µM meet or surpass 40% for `Cn1cc(-c2cc3cc(NC(=O)C4CCNCC4)ncc3cn2)cn1` ?
# output no

# input Does inhibition at 10 µM meet or surpass 40% for `Cn1cc(-c2cc3cc(NC(=O)C4CCN(Cc5ncco5)CC4)ncc3cn2)cn1` ?
# output no

---

For each entry below, report its EC50 value.
# Tested on: α-smooth muscle actin (aSMA) positive LL29 cells
# TEST: Inhibition of the fibrotic process: αSMA staining in TGF-β1 treated LL29 fibroblasts from IPF patients
# MEASUREMENT CONDITIONS: Homo sapiens, Fibroblast, 96 h
Answers are plain numbers, in µM.

CN1CCC(Oc2ccc(C(=O)Nc3cc4cc(-c5cnn(C)c5)cnc4cn3)cc2)CC1 5.12
CC(C)OC(=O)N1CCC(n2cc(C(=O)Nc3cc4nc(-c5cnn(C)c5)ccc4cn3)cn2)CC1 0.329

Please examine the following record next.
# input State, in one line, measured EC50 of `Cn1cc(-c2cc3cc(NC(=O)c4ccnc(N5CCNCC5)c4)ncc3cn2)cn1`
# output 3.32

---

# System: SW480 colon carcinoma cells
# TEST: Cell viability assay (CellTiter-Glo)
# MEASUREMENT CONDITIONS: SW480 cells, four days, CellTiter-Glo
PARAMETER: EC50

CN1CCN(c2ncc(C(=O)Nc3cc4cc(-c5cnn(C)c5)ncc4cn3)s2)CC1 > 10 µM

# input State, in one line, measured EC50 of `O=C(Nc1cc2nc(-c3cnn4c3CN(CCF)CC4)ccc2cn1)C1CCC(F)(F)CC1`
# output 3.53 µM

---

# SYSTEM NAME: DYRK1A kinase (Homo sapiens)
# TEST: DYRK1A kinase activity (Ser/Thr 18 peptide Z-lyte FRET assay)
# MEASUREMENT CONDITIONS: recombinant DYRK1A, 30 μM ATP, one hour at room temperature
For each entry below, report its pEC50 value.
One number for each entry, as −log10 of the molar value.

# count of solved cases: 5
COMPOUND	SYSTEM NAME	pEC50
Cc1nnc(-c2cnc3cnc(NC(=O)c4ccnc(N5CCN(C)CC5)c4)cc3c2)s1 [Compound 3470]	DYRK1A kinase (Homo sapiens)	6.96
CC(C(=O)Nc1cc2cc(-c3cncn3C)cnc2cn1)N1CCCC1 (centres unmarked) [Compound 3134]	DYRK1A kinase (Homo sapiens)	5.70
Cn1ncc(-c2ccc3cnc(NC(=O)c4ccnc(N5CCOCC5)c4)cc3n2)c1CN1CCOCC1 [Compound 314]	DYRK1A kinase (Homo sapiens)	8.10
Cn1cc(-c2ccc3cnc(NC(=O)C4CCN(CC5(C(F)(F)F)CC5)CC4)nc3c2)nn1 [Compound 1253]	DYRK1A kinase (Homo sapiens)	7.89
CN1CCCN(c2cc(C(=O)Nc3cc4cc(-c5cn(C)nn5)cnc4cn3)ccn2)CC1 [Compound 3099]	DYRK1A kinase (Homo sapiens)	6.81

Each compound below has a reported value. Please supply its pEC50.
1. CN(C)CCNc1cc(C(=O)Nc2cc3cc(-c4cnn(C)c4)cnc3cn2)ccn1 [Compound 2884]
2. Cn1cncc1-c1ccc2cnc(NC(=O)c3ccc4c(c3)CNC4)cc2n1 [Compound 477]
3. C[C@H]1CCCN1CC(=O)Nc1cc2nc(-c3cnn(C)c3)ccc2cn1 [Compound 47]
4. O=C(Nc1cc2nc(-c3cncc(NCC4(F)CNC4)n3)ccc2cn1)C1CC1 [Compound 871]

# output
1: 7.31; 2: 9.00; 3: 7.44; 4: 7.60

Each compound below has a reported value. Please supply its pEC50.
1. Cn1cc(-c2ccc3cnc(NC(=O)C4CCN(Cc5ncco5)CC4)nc3c2)cn1 [Compound 1003]
2. CN(C)Cc1ccc(C(=O)Nc2cc3nc(-c4cnn(C)c4)ccc3cn2)cc1 [Compound 170]
3. CC(C(=O)Nc1cc2cc(-c3cnn(C)c3)cnc2cn1)N1CCCCC1 (centres unmarked) [Compound 2791]
4. CN(CC(=O)Nc1cc2cc(-c3cnn(C)c3)cnc2cn1)C1CCC1 [Compound 2776]
5. Cc1cn2c(n1)CN(C(=O)Nc1cc3cc(-c4cnco4)cnc3cn1)CC2 [Compound 4615]
6. CN1CC(COc2cncc(-c3ccc4cnc(NC(=O)c5ccc(F)cc5)cc4n3)n2)C1 [Compound 4564]

# output
1. 7.60
2. 8.22
3. 6.29
4. 7.25
5. 7.57
6. 5.99

Each compound below has a reported value. Please supply its pEC50.
1. Cn1cc(-c2ccc3cnc(NC(=O)CC4CNCCO4)cc3n2)cn1 (centres unmarked) [Compound 86]
2. Cn1cc(-c2ccc3cnc(NC(=O)[C@H]4CC[C@H](N)CC4)cc3n2)cn1 [Compound 41]

# output
7.92
8.00

---

For each entry below, report its pEC50 value.
# SYSTEM NAME: GSK3β kinase (Homo sapiens, UniProt P49841)
# Sequence (P49841 whole entry): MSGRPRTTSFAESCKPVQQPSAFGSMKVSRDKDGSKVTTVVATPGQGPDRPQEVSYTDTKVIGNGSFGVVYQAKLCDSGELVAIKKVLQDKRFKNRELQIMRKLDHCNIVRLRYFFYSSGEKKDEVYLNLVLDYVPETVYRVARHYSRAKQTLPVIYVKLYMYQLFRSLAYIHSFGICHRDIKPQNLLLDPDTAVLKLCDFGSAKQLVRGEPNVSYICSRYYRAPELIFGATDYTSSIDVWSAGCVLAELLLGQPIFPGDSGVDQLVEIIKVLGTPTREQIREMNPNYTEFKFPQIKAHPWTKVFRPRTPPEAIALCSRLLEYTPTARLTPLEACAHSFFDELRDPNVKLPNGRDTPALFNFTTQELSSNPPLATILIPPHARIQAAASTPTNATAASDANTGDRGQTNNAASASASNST
# TEST: GSK3β kinase activity (Ser/Thr 09 peptide Z-lyte FRET assay)
# Type: biochemical
# MEASUREMENT CONDITIONS: recombinant kinase, 46 μM ATP, one hour at room temperature; read-out: EC50
One number for each entry, as −log10 of the molar value.

MOLECULE	pEC50
Cn1cc(-c2cc3cc(NC(=O)C4CCNCC4)ncc3cn2)cn1 [Compound 3638]	7.57
CC(C)CN1CCC(CC(=O)Nc2ncc3ccc(-c4cnn(C)c4)cc3n2)C1 (centres unmarked) [Compound 1029]	6.62

Each molecule below has a reported value. Please supply its pEC50.
1. CN1CCC(Oc2ccc(C(=O)Nc3cc4cc(-c5cnn(C)c5)ncc4cn3)cc2)CC1 [Compound 3772]
2. CC(C)CN1CCC(C(=O)Nc2cc3cc(-c4cnn(C)c4)ncc3cn2)CC1 [Compound 3643]
3. CC(C)CN1CCC(CC(=O)Nc2cc3nc(-c4cnn(C)c4)ccc3cn2)C1 (centres unmarked) [Compound 122]
4. O=C(Nc1ncc2ccc(-c3cncc(N[C@H]4CCNC[C@@H]4F)n3)cc2n1)C1CC1 [Compound 1785]

# output
[6.41, 7.51, 7.15, 6.87]

Each molecule below has a reported value. Please supply its pEC50.
1. Cn1cncc1-c1ccc2cnc(NC(=O)c3ccc4c(c3)CNC4)nc2c1 [Compound 1383]
2. Cc1nnc(-c2ccc3cnc(NC(=O)CN4C5CCC4CC5)nc3c2)s1 [Compound 1632]

# output
6.34
6.03
